Parameter: Activity. Scope: all listed entries.
Tested on: Rattus norvegicus
Assay: Anti-inflammatory activity against carrageenan-induced paw edema in albino rat assessed as paw thickness at 100 mg/kg, po pretreated for 1 hr followed by carrageenan challenge measured at 3 hrs post carrageenan challenge (reference value: 0.401 +/- 0.019 mm)
Type: functional
# unit: mm | format: bare number

>>> print(df.to_string())
                         compound_structure       assay_system  result_unit  test_result
0  COc1ccc(-c2ncn(CC(=O)N3CCN(C)CC3)c2-c2ccc(OC)cc2)cc1  Rattus norvegicus           mm        0.191
1  COc1ccc(-c2ncn(CC(=O)N3CCOCC3)c2-c2ccc(OC)cc2)cc1  Rattus norvegicus           mm        0.159
2  COc1ccc(-c2nc(NCC(=O)O)sc2-c2ccc(OC)cc2)cc1  Rattus norvegicus           mm        0.213
3  COc1ccc(-c2nc(NCC(=O)N3CCOCC3)sc2-c2ccc(OC)cc2)cc1  Rattus norvegicus           mm         0.19
4  O=C(CNc1nc(-c2ccccc2)c(-c2ccccc2)s1)N1CCOCC1  Rattus norvegicus           mm        0.167

query: Answer with the recorded Activity of O=C(O)Cn1cnc(-c2ccccc2)c1-c1ccccc1 only.
result: 0.189

query: Answer with the recorded Activity of CN1CCN(C(=O)CNc2nc(-c3ccccc3)c(-c3ccccc3)s2)CC1 only.
result: 0.197

query: Answer with the recorded Activity of O=C(O)CNc1nc(-c2ccccc2)c(-c2ccccc2)s1 only.
result: 0.185

query: Answer with the recorded Activity of O=C(Cn1cnc(-c2ccccc2)c1-c1ccccc1)N1CCOCC1 only.
result: 0.186

query: Answer with the recorded Activity of COc1ccc(-c2nc(NCC(=O)N3CCN(C)CC3)sc2-c2ccc(OC)cc2)cc1 only.
result: 0.163

query: Answer with the recorded Activity of COc1ccc(-c2ncn(CC(=O)O)c2-c2ccc(OC)cc2)cc1 only.
result: 0.18

query: Answer with the recorded Activity of CN1CCN(C(=O)Cn2cnc(-c3ccccc3)c2-c2ccccc2)CC1 only.
result: 0.168

* * *

Biological target: Prostaglandin G/H synthase 1 (Ovis aries)
Sequence (P05979 whole entry): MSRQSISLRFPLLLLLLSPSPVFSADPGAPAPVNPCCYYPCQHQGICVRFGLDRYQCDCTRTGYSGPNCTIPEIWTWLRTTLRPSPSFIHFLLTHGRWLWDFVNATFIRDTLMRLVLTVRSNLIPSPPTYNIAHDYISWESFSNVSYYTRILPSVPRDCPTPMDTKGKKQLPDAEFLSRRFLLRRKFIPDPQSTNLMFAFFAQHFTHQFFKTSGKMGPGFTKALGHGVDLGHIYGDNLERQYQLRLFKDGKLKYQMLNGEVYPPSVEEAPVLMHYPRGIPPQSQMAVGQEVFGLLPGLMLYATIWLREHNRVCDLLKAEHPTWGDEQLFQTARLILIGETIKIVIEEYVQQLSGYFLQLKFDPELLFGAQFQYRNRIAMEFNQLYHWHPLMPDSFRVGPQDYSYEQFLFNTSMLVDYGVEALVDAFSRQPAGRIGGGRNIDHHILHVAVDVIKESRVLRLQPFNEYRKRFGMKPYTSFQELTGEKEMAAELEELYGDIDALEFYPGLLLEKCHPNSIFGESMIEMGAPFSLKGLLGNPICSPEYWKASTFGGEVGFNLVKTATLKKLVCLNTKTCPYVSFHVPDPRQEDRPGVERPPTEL
Assay: Inhibition of ovine COX-1 assessed as reduction in oxidation of TMPD using arachidonic acid as substrate preincubated for 5 mins followed by substrate and TMPD addition measured after 5 mins by colorimetric assay
Parameter: pIC50. Scope: all listed entries.
Just so you know, pIC50 here is -log10 of the concentration in molar units; reply with that number alone.

Look over these answered cases.
                         compound_structure  test_result
0  COc1ccc(-c2nc(NCC(=O)N3CCOCC3)sc2-c2ccc(OC)cc2)cc1         5.40
1  CN1CCN(C(=O)Cn2cnc(-c3ccccc3)c2-c2ccccc2)CC1         5.38
2  O=C(Cn1cnc(-c2ccccc2)c1-c1ccccc1)N1CCCCC1         5.07
3  COc1ccc(-c2ncn(CC(=O)N3CCN(C)CC3)c2-c2ccc(OC)cc2)cc1         5.51
4  O=C(CNc1nc(-c2ccccc2)c(-c2ccccc2)s1)N1CCOCC1         5.24
5  COc1ccc(-c2ncn(CC(=O)N3CCOCC3)c2-c2ccc(OC)cc2)cc1         5.29
6  COc1ccc(-c2nc(NCC(=O)O)sc2-c2ccc(OC)cc2)cc1         6.49
7  COc1ccc(-c2ncn(CC(=O)O)c2-c2ccc(OC)cc2)cc1         6.27

query: Answer with the recorded pIC50 of COc1ccc(-c2nc(NCC(=O)N3CCN(C)CC3)sc2-c2ccc(OC)cc2)cc1 only.
result: 5.57

query: Answer with the recorded pIC50 of O=C(O)CNc1nc(-c2ccccc2)c(-c2ccccc2)s1 only.
result: 6.38
